# Measured on: MMP-2 (Homo sapiens)
# Construct: purchased Sino Biological 10082-HNAH
# Sequence (P08253 110-660): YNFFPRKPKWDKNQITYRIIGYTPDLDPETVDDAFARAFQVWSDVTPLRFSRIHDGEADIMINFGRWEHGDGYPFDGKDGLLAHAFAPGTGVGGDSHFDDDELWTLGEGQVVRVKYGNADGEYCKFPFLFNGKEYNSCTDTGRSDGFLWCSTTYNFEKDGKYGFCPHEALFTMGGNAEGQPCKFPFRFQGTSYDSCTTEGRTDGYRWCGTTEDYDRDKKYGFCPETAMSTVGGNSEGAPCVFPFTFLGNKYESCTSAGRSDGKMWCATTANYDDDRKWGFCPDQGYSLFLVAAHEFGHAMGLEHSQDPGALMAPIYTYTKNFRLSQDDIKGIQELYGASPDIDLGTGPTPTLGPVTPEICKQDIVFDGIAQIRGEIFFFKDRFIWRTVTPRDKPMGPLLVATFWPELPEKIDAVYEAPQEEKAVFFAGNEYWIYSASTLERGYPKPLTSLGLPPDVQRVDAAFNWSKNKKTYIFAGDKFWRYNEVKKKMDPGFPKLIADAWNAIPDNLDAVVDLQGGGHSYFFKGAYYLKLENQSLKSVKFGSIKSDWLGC
# Measurement notes: MMP-2 inhibition assay (fluorogenic peptide substrate)
# Format: biochemical
# Experimental context: Figure 5d; fragment combination joined by linker; n.d: not detected; read-out: MMP2 IC50
Property: IC50 (µM)

Cc1cc(=O)[nH]c(-n2nc(C)c(CCC(=O)NCCNC(=O)CSCCNC(=O)c3cncc(O)c3)c2C)n1 59.9
O=C(C=CCCCCC(=O)NCc1c[nH]nn1)CC(=O)NCC12CC3CC(CC(C3)C1)C2 339
Cc1cc(=O)[nH]c(-n2nc(C)c(CCC(=O)NCCCCCCCCNC(=O)c3cncc(O)c3)c2C)n1 212

a: Cc1cc(=O)[nH]c(-n2nc(C)c(CCC(=O)NCCOCCOCCNC(=O)CCC(=O)NCc3c[nH]nn3)c2C)n1
b: O=C(Cn1cnc2c(oc3ccccc32)c1=O)NCc1c[nH]nn1
c: Cn1c(O)nc2cc(C(=O)NCCCCC=CC(=O)CC(=O)NCCNC(=O)Cn3cnc4c(oc5ccccc54)c3=O)cnc21
Qu. Sort low-to-high on IC50, please. Field: ranking. Enter the labels in the order requested.
Ans. c, b, a
(c: 62.3 µM, b: 95.5 µM, a: 171 µM)
